molecular target: DLG1_2, Q12959; experiment: holdup assay; set-up: key: below the threshold = too weak to quantify, mostly under pKd 3.1 to 4; details: plain residues with an end cap or a label only (N-terminal biotin on a linker: ttds)
Sequence (Q12959 314-412): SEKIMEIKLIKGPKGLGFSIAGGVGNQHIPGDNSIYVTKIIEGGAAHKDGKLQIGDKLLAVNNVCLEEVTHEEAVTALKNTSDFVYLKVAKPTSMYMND
reportedProperty: pKd
Enter a number only.

Examples with their reported pKd follow.
binder | pKd
QRQARSETLV [HPV59-E6, Q81964] | 5.56
SSLQSLETSV [ATP2B4, P23634] | 5.43

Form field: reported pKd of SGSRPSATVV [HPV73-E6, Q82005]
4.3
